- STUDY_TARGET: T1, SRA-Spacer (human, UniProt Q96T88 414-674)
- T1 sequence: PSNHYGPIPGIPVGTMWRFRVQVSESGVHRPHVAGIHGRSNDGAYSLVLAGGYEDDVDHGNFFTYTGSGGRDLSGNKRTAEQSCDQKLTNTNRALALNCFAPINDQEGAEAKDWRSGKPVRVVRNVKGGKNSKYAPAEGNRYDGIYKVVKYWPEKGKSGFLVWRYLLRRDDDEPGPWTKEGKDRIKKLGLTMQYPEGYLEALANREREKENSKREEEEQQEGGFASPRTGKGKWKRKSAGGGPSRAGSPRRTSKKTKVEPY
- EXPERIMENT: FP; DNA length series; ITC: 10 mM HEPES pH 8.0, 100 mM NaCl, 18 C; EMSA: 20 mM HEPES pH 7.5, 100 mM NaCl, 8% glycerol, 1 mM DTT, on ice; pull-down: 20 mM HEPES-NaOH pH 8.0, 100 mM NaC
METRIC: pKd
Would you please state pKd, meaning minus log10 of the concentration in mol/L, as a bare number?

Lookup: Dear colleague, I am looking for the recorded pKd of the following binder: FAM-12bp-HM-DNA (dsDNA, 5-methyl-dC at position 6 of strand 2 (GTCAGXGCATGG)) DNA 1: CCATGCGCTGAC DNA 2: GTCAGCGCATGG
Found: 6.47
